Give measured melting point for each item. Keep answers brief.

// query Give recorded melting point. COc1ccc(C2=NN(C3CCN(C(=O)NC(C)(C)C)CC3)C(=O)[C@@H]3CC=CC[C@H]23)cc1OC
// result 164 to 166 °C

// query Query melting point for CC(C)(C)c1cc(CC(Cc2cc(C(C)(C)C)c(O)c(C(C)(C)C)c2)(Cc2cc(C(C)(C)C)c(O)c(C(C)(C)C)c2)[N+](=O)[O-])cc(C(C)(C)C)c1O
// result 199 to 201 °C

// query Tell me melting point reported for CC(C)C(O)c1ccc(-c2ccc(Cl)cc2)cc1 (stereo not given)
// result 71 to 72 °C

// query Output melting point of CC(=O)OC1CCC2(C)C(CCC3=C4C(=O)CC(C(C)CCC=C(C)C)C4(C)CCC32)C1 (stereo not given)
// result 129 to 130 °C

// query Please look at this compound and report its melting point: O=C(O)C(O)(c1ccccc1)c1ccc(Br)cc1 (racemic)
// result 125 to 126 °C

// query Annotate the compound CC(C)(C)OC(=O)NCC1CCN(CC2(C(=O)O)CCOCC2)CC1 with its measured melting point.
// result 129 °C

// query Output measured melting point for this item: CC(C)C(NS(=O)(=O)c1ccc(Cl)cc1)c1ccc(CCCC(=O)O)cc1 (single isomer, unassigned; (+))
// result 117 to 119 °C

// query Give a short answer stating reported melting point for COC(=O)[C@H](CCCO)NC(=O)[C@H](Cc1ccccc1)NC(=O)OCc1ccccc1 .
// result 155 to 157 °C

// query Give recorded melting point. COc1cc(C(=O)O)ccc1CN1CCOc2ccc(NC(=O)OC3CCCC3)cc21
// result 221 to 222 °C

// query Tell me measured melting point for O=C1C=c2c(c3c4ccccc4oc3c3[nH]c4ccccc4c23)=N1 please.
// result > 300 °C

// query Report melting point, nothing else, for this compound: COc1ccc2c(c1OC)CC=C2c1c[nH]cn1
// result 150 °C

// query # return recorded melting point for input CCn1nc(C)c(N)c1C
// result 69 to 70 °C

// query Indicate its recorded melting point; the compound in question is O=c1c2cccnc2n(-c2cccc(Cl)c2)c2ccsc12
// result 264 to 267 °C

// query Determine its reported melting point: Cc1c(F)c(N)cc([N+](=O)[O-])c1F
// result 106 to 107 °C

// query Give melting point for the following compound: CCN(CC)CCOc1ccc(Nc2ncc3c(n2)N(CC)C(=O)N(c2c(Cl)cccc2Cl)C3)cc1
// result 85 °C

// query Given the compound FC(F)(F)c1cc(C(F)(F)F)c(-c2ccc(Cl)cc2)[nH]1 , write its reported melting point.
// result 41 to 43 °C

// query Please supply the value of reported melting point for the item O=C(O)CC(CC(=O)O)Sc1nc2ccccc2s1
// result 153 to 154 °C

// query Kindly indicate its recorded melting point. Item: COc1ccc(CN(CCCC#N)Cc2ccc(OC)cc2)cc1
// result 56 to 58 °C

// query Read off the recorded melting point for COC(=O)NN=Cc1ccnc2ccccc12
// result 83.5 °C

// query Please supply the value of reported melting point for the item COCc1cnc2c(NC(=O)c3c(Cl)cccc3Cl)ccc(C)c2c1-n1ccnc1
// result 179 to 180 °C

// query Let me know recorded melting point for FC(F)(F)c1nc2ccnc(Cl)n2n1 , thanks.
// result 47 to 48 °C

// query Give recorded melting point. O=C(Nc1ccc(Oc2ccccc2)cc1)N1CCN(c2ncnc3cc([N+](=O)[O-])ccc23)CC1
// result 146 to 148 °C

// query Tell me its melting point given CN(C)CCCOc1ccc(-c2nnc(CSCCOc3ccccc3)o2)cc1 as the entry.
// result 70 °C

// query Could you please provide reported melting point for O=C(c1ccc(-c2ccc3nnn(Cc4ccc5ncccc5c4)c3n2)cc1)N1CCN(CCO)CC1 ? Thanks!
// result 158 to 160 °C

// query Respond only with melting point recorded for O=C1c2ccccc2C(=O)N1C1CCC(c2cc(F)c(Br)cc2F)C1 (stereo not given)
// result 44 to 47 °C

// query Please list melting point recorded for the compound NNc1nc(-c2ccccc2)co1
// result 158 to 160 °C

// query Item ClCCCCOc1ccccc1/C=C/c1nc2ccccc2o1 : provide melting point
// result 92 to 93 °C

// query Retrieve melting point measured for O=[N+]([O-])c1cccc(O)c1Cl and print it.
// result 130 °C

// query Specify measured melting point for CC1CN(CC(=O)c2ccccc2)c2nc(-c3ccncc3)cc(=O)n2C1 (stereo not given) .
// result 202 to 203 °C

// query Check the records and state melting point for CSC(=S)NCc1ccc([N+](=O)[O-])cc1
// result 106 to 107 °C

// query Tell me its melting point given Cc1cc([N+](=O)[O-])c2c(c1SC(=O)N(C)C)CCC2 as the entry.
// result 180 °C

// query Please list melting point recorded for the compound C=C(C(=O)O)c1ccc2c(c1)Cc1ccccc1-2
// result 183 to 185 °C

// query For the compound COc1ccc(N=Nc2ccc(O)c(C(=O)Nc3ccc4cn[nH]c4c3)c2)cc1 , report melting point.
// result 279 °C

// query Output melting point of Cn1nc(-c2c(F)cccc2Cl)nc1-c1ccc(Oc2ccc(C(F)(F)F)cn2)cc1Cl
// result 139 to 141 °C

// query Return reported melting point. Input compound: COc1ccc(S(=O)(=O)N2Cc3ccccc3N(C(=O)c3cccc(C(F)(F)F)c3)CC2C(=O)NO)cc1 (stereo not given)
// result 128 to 130 °C

// query Please give the documented melting point of Cc1nc(N2CCN(CCC3CC3)C2=O)sc1C(=O)NCc1cccnc1
// result 146 to 147 °C

// query Please list melting point recorded for the compound CS(=O)C1(c2ccncc2)CNN=C1c1ccc(F)cc1 (stereo not given)
// result 263 °C

// query Supply reported melting point belonging to this compound: Cc1sc(COc2ccc(/C=C/C=O)cc2)nc1-c1ccccc1
// result 116 to 117 °C

// query Provide one value: measured melting point of O=C(O)c1ccc(C=Cc2ccccc2)cc1
// result 252 °C

// query Identify melting point associated with the compound O=C1CCC(c2cc(F)c(OC3CCN(C4CCC4)CC3)c(F)c2)=NN1
// result 162 to 164 °C
